target: Pyruvate kinase PKLR (Homo sapiens, UniProt P30613); assay: Inhibition of full length N-terminal His-tagged human PKL (2 to 543 residues) expressed in Escherichia coli by kinase Glo luminescence based plate reader assay
Sequence (P30613 whole entry, the tested form may be a part): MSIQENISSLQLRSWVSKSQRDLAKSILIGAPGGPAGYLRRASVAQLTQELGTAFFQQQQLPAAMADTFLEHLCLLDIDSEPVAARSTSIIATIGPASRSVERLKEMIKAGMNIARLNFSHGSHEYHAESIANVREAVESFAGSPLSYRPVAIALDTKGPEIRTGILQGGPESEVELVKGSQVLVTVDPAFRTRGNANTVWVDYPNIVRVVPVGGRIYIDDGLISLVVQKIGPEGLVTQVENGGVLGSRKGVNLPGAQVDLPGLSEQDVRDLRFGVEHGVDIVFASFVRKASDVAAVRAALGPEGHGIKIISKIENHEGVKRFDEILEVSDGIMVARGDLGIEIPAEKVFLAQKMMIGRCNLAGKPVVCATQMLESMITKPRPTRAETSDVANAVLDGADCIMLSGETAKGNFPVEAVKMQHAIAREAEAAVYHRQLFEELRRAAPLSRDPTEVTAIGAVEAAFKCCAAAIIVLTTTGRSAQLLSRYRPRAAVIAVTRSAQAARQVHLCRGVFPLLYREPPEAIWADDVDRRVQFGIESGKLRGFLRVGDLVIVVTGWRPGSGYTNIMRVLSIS
observable: IC50 (nM)
Respond with the bare value in nM.

query: Give a short answer stating reported IC50 for O=S1(=O)Oc2cc(O)c(O)c(O)c2-c2cc(O)c(O)cc21 .
result: 70

Origin of measurements: ChEMBL document CHEMBL5512634
